IC50 values recorded for PAK4 (Homo sapiens)
One number for each entry, in µM.

Illustrative cases are given below, each with its answer.
Nc1nccc2c1c1ccccc1n2-c1cccc(C#CC2(O)CCCCC2)c1 [Compound 10b]    34
Cc1nn(-c2cccc(C#CC3(O)CCCCC3)c2)c2ncnc(N)c12 [Compound 14b]    0.77
Nc1ncnc2c1c(CCCN1CCOCC1)nn2-c1cccc(C#CC2(O)CCCCC2)c1 [Compound 18a]    9.92

Retrieve IC50 measured for Nc1ncnc2c1c(CCCN1CCCCC1)nn2-c1cccc(C#CC2(O)CCCCC2)c1 [Compound 18b] and print it. 4.41

====

# system: PAK5 (Homo sapiens)
# Sequence (Q9P286 whole entry): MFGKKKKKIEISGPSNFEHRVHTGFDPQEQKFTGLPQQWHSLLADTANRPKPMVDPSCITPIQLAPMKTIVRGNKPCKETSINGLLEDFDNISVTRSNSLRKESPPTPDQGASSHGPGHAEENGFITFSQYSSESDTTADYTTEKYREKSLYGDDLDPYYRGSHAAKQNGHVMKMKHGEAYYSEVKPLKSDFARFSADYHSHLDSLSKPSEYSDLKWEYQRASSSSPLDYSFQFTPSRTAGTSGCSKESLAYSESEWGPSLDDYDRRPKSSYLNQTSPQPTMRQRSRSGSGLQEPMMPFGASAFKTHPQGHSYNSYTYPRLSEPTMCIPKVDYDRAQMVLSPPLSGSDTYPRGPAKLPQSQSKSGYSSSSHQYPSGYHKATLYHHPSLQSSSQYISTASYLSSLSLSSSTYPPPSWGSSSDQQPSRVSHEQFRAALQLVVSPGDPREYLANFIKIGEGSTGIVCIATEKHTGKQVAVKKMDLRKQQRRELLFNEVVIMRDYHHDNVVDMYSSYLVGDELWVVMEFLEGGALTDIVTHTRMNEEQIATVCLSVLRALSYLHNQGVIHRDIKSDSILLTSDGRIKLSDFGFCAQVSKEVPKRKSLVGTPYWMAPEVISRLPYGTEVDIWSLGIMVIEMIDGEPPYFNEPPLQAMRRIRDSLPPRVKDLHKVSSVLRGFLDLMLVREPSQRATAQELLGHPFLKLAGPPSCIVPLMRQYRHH
parameter measured: IC50

# return recorded IC50 for entry Cc1nn(-c2cccc(C#CC3(O)CCCCC3)c2)c2ncnc(N)c12 [Compound 14b] > 100 µM
